Where do these numbers come from? They come from patent US20070037785A1.

Reported pIC50 values for a set of compounds
Target: UniProt:P27487
Experiment: biochemical
Settings: values without "*" = IC-50; read-out: IC50DPIV
Give only the number. pIC50 is defined as minus log10 of concentration in molar units.

Recorded pIC50, per entry:
compound	measurementLabel	reportedValue
COc1cc2c(cc1OC)CC(C)(C)N=C2 [D3.026]	pIC50	4.69
CCOc1cc(/C=N/NC(=O)c2cc(C)n[nH]2)ccc1O [D10.023]	pIC50	4.87
Cc1ccc(OCC(=O)N/N=C\c2ccc(O)c([N+](=O)[O-])c2)c([N+](=O)[O-])c1 [D10.030]	pIC50	4.75

The reported value for Nc1nonc1-n1nnc(C(=O)NN=C2c3ccccc3-c3ccccc32)c1-c1ccccc1 [D13.001] in terms of pIC50 is 5.00

response.value for O=C(COc1cccc(Br)c1)N/N=C/c1cc(O)c(O)c(Br)c1Br [D10.014] (field: pIC50) = 4.94

Noted for CCOC(=O)C1=C2SCC(=O)N2C(N)=C(C#N)C1 [D3.009] : its pIC50 reads 4.85

// pIC50 lookup, compound = N#CC1=C(N)C(C#N)(C#N)C(c2ccccc2)C2CNCC=C12 (stereo not shown) [D3.035] , result: 4.28

Summary for this compound, CC(C)(C)C(=O)N1CCN(c2cc(Cl)nc(SCC(=O)N3CCN(Cc4ccc5c(c4)OCO5)CC3)n2)CC1 [D3.059] : pIC50 is 4.34

Noted for O=C1NC23NC(=O)NC2(N1)c1ccccc1-c1ccccc13 (stereo not shown) [D3.057] : its pIC50 reads 4.37

Entry CCCC(=O)O/N=C1\C(=O)N(c2ccccc2)c2ccccc21 [D4.020] — recorded pIC50 = 4.82

Lab note: measured pIC50 of O=C(Nc1c[nH]c(=O)[nH]c1=O)c1ccc2c(c1)C(=O)N(c1ccc(C(=O)c3ccccc3)cc1)C2=O [D12.016] was 4.42

// pIC50 lookup, compound = CCOC(=O)CC(N)c1ccccc1Cl (stereo not shown) [D13.005] , result: 4.14

The recorded pIC50 for CCCCOC(=O)c1cc(-c2ccc(/C=C3/C(=O)N(CC(C)O)C(=O)C(C#N)=C3C)o2)ccc1Cl (stereo not shown) [D12.027] is 4.31

Kindly note the recorded pIC50 for COC(=O)c1ccc(NC(=O)/C(=C\c2cccc([N+](=O)[O-])c2)NC(=O)c2ccc(Br)o2)cc1 [D6.108] , which is 3.94

----------
Target: dipeptidyl peptidase IV (Homo sapiens)
Assay: biochemical
Conditions: values without "*" = IC-50; read-out: IC50DPIV
pIC50 listing for selected molecules.
Convention used: pIC50 is expressed as -log10 of the molar concentration.

molecule	pIC50
O=C1CSCC(=O)N1c1cc(Cl)cc(Cl)c1	5.07
CC1CCc2c(sc(NC(=O)C(C(F)(F)F)C(F)(F)F)c2C#N)C1 (stereo not drawn) [D3.080]	4.22
Cc1nc2c(sc(=S)n2C)c(=O)[nH]1	4.34
COc1cc(/C=N/NC(=O)c2ccccc2OC(C)C)ccc1O	4.23
Cc1ccc(/C=N/NC(=O)c2cccc(I)c2)o1 [D10.085]	4.24
CCN(CC)c1ccc(/C=C(/NC(=O)c2ccccc2)C(=O)N/N=C/c2c(C)c(Br)c(O)c(Br)c2O)cc1	4.69
Cc1ccc(C2N(CC(C)C)CC(C(=O)c3c(C)cccc3C)N2CCCN2CCCC2=O)cc1 (stereo not drawn)	5.12
O=C1/C(=N\NC(=S)Nc2ccccc2F)c2cc(S(=O)(=O)N3CCOCC3)ccc2N1Cc1ccc(Cl)cc1 [D2.004]	4.48

API: the following record is the query input.
So, CCOC(=O)c1c(C)oc2c1c1c(c3ccccc32)OCN(C2CCS(=O)(=O)C2)C1 (stereo not drawn) [D6.054] ? Its pIC50 was 4.47

----------
Target: dipeptidyl peptidase IV (Homo sapiens, UniProt P27487)
Sequence (P27487 whole entry, species assumed): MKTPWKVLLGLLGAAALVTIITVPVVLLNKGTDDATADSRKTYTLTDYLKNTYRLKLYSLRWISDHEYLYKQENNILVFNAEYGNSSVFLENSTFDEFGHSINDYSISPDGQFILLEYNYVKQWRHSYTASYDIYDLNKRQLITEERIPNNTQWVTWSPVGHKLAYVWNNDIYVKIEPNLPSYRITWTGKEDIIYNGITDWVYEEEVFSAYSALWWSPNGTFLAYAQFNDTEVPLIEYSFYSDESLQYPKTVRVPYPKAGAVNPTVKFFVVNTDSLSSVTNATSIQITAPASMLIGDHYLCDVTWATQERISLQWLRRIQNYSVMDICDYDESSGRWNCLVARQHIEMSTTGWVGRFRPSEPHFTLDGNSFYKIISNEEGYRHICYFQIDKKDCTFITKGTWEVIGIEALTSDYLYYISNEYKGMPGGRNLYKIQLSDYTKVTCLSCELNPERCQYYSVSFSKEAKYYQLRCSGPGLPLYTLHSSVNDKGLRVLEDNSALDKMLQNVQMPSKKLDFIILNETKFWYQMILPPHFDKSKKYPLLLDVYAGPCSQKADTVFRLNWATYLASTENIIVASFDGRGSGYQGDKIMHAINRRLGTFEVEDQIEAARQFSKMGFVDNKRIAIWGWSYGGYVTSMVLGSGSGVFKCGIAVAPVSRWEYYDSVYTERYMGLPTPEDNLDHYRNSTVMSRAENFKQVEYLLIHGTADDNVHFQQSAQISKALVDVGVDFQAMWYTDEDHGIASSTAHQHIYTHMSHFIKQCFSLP
Assay: biochemical
Details: values without "*" = IC-50; read-out: IC50DPIV
Measured IC50 of individual entries
Dear colleague, please return just the value in µM, with no unit written.

As a guide, the following entries are already answered.
compound	assayedSystem	IC50, µM
COc1cc(/C=N/NC(=O)CNC(=O)c2ccc(Cl)cc2)ccc1OC(=O)c1cccc(F)c1 [D10.066]	dipeptidyl peptidase IV (Homo sapiens, UniProt P27487)	42
O=C1C=C(c2cccc([N+](=O)[O-])c2)C(=O)N1c1ccc(Cl)cc1 [D4.016]	dipeptidyl peptidase IV (Homo sapiens, UniProt P27487)	12.3
CCc1c(C)[nH]c2c1/C(=N/OC(=O)C(C)C)CCC2 [D11.010]	dipeptidyl peptidase IV (Homo sapiens, UniProt P27487)	43.8

The compound CCCCOC(=O)c1cc(-c2ccc(/C=C3/C(=O)N(CC(C)O)C(=O)C(C#N)=C3C)o2)ccc1Cl (stereo not shown) [D6.070] on dipeptidyl peptidase IV (Homo sapiens, UniProt P27487): IC50 was 49

----------
Attribute: IC50
Molecular target: dipeptidyl peptidase IV (Homo sapiens)
Experiment: biochemical
Settings: values marked with "*" are ID50 values; read-out: IC50DPIV, values marked with "*" = ID50

Sample records with IC50:
compound	IC50
C/C(=N\NC(=O)c1cc(-c2ccc(CC(C)C)cc2)n[nH]1)c1ccc2ccccc2c1	7.2 µM
Cc1ccc(-n2c(SCC(=O)c3ccccc3)nc3sc4c(c3c2=O)CC(C(C)C)OC4)cc1 (centres unmarked)	209 µM
COc1ccc(/C=N/NC(=O)C(=O)Nc2ccc(Cl)cc2C)c(OC)c1	275 µM
CC(=O)Oc1ccc(-n2c(=O)c3ccccc3c3ccccc3c2=O)cc1	268 µM
CC(C)c1ccc(N2CC(C(=O)Nc3ccc(Br)cc3Br)CC2=O)cc1 (centres unmarked)	172 µM

Param item: "O=C(N/N=C/c1cc(Br)cc(Br)c1OC(=O)c1ccccc1)/C(=C/c1cccs1)NC(=O)c1ccccc1" ; param system: dipeptidyl peptidase IV (Homo sapiens); output IC50: 114 µM

Bench note, dipeptidyl peptidase IV (Homo sapiens): entry COc1ccc(NC(=O)CSc2nnc3n2-c2sc4c(c2C(=O)C3CCc2ccccc2)CC(C)(C)OC4)cc1 (centres unmarked) [D3.111] , its IC50 = 284 µM

Record O=C(N/N=C/c1cc(Br)ccc1OC(=O)c1ccc([N+](=O)[O-])cc1)/C(=C\c1ccc2c(c1)OCO2)NC(=O)c1ccccc1 [D3.109] has dipeptidyl peptidase IV (Homo sapiens) IC50 equal to 272 µM

----------
Catalogue of pIC50 readings, one per entry.
Biological target: dipeptidyl peptidase IV (Homo sapiens, UniProt P27487)
Assay: biochemical
Conditions: values without "*" = IC-50; read-out: IC50DPIV
Scale note: pIC50 = -log10(concentration in M).

Some entries whose results are on file:
compound	assayedSystem	pIC50
CS(=O)(=O)N1CCN(C(=O)Nc2ccc(C(F)(F)F)cc2)C1C(=O)NCc1cccc(N)c1 (centres unmarked) [D9.007]	dipeptidyl peptidase IV (Homo sapiens, UniProt P27487)	4.39
CCCc1cccc(/C=N/NC(=O)c2cc(-c3ccc(F)cc3)n[nH]2)c1O [D6.079]	dipeptidyl peptidase IV (Homo sapiens, UniProt P27487)	4.26

// COc1cc(/C=N/NC(=O)COc2ccc(C(C)(C)CC(C)(C)C)cc2)cc([N+](=O)[O-])c1O [D10.033] : pIC50 value = 4.72

The value of pIC50 measured for the compound N#C/C(=C\c1ccc(N2CCCCC2)c([N+](=O)[O-])c1)c1nn(CCO)c(N)c1C#N [D4.032] turned out to be 4.63

Record CCC(=O)O/N=C(/C)c1cc2ccccc2oc1=O [D3.060] , field pIC50: 4.34

----------
Target: dipeptidyl peptidase IV (Homo sapiens, UniProt P27487)
Test: biochemical
Settings: values without "*" = IC-50; read-out: IC50DPIV
Measured IC50 accompanies every entry in the list below.
Could you give me the number in µM? Just the number is fine.

Use these answered entries as a reference point.
compound	reportedValue
CCCC(=O)Oc1ccc(N(C(=O)CCC)S(=O)(=O)c2cccs2)cc1	31.3
CN(C)c1ccc(/C=N\NC(=O)c2cc(N)ccc2O)cc1	7.6
Cc1ccccc1NC(=O)CSC1=NCCN1	38.1
CC1=C(C#N)C(=O)N(CCCO)C(=O)/C1=C\c1ccc(-c2cc(C)c(C)cc2[N+](=O)[O-])o1 [D4.046]	34.8

For "O=C(CNC(=O)C(c1ccccc1)c1ccccc1)N/N=C/c1ccc(OC(=O)c2cccc(F)c2)cc1" the compound record lists IC50 as 93.3

# compound "N#Cc1c(NC(=O)C(C(F)(F)F)C(F)(F)F)sc2c1CCC2" ; its IC50 = 30.9

Field IC50 (entry "COC(=O)O/N=C(/N)c1nonc1N" ) reads 44.3

Entry O=C(Nc1cccc(/N=C/c2cc(I)cc(I)c2O)c1)c1ccco1 [D11.002] ; IC50 = 9.2

IC50 reading for "COc1ccc(OCC(=O)N/N=C/c2c(Br)cc(Br)c(O)c2Br)c(Br)c1" : 99.4
